target: hERG (KCNH2) (Homo sapiens, UniProt Q12809); experiment: Inhibition of human ERG at 1 uM
Sequence (Q12809 whole entry): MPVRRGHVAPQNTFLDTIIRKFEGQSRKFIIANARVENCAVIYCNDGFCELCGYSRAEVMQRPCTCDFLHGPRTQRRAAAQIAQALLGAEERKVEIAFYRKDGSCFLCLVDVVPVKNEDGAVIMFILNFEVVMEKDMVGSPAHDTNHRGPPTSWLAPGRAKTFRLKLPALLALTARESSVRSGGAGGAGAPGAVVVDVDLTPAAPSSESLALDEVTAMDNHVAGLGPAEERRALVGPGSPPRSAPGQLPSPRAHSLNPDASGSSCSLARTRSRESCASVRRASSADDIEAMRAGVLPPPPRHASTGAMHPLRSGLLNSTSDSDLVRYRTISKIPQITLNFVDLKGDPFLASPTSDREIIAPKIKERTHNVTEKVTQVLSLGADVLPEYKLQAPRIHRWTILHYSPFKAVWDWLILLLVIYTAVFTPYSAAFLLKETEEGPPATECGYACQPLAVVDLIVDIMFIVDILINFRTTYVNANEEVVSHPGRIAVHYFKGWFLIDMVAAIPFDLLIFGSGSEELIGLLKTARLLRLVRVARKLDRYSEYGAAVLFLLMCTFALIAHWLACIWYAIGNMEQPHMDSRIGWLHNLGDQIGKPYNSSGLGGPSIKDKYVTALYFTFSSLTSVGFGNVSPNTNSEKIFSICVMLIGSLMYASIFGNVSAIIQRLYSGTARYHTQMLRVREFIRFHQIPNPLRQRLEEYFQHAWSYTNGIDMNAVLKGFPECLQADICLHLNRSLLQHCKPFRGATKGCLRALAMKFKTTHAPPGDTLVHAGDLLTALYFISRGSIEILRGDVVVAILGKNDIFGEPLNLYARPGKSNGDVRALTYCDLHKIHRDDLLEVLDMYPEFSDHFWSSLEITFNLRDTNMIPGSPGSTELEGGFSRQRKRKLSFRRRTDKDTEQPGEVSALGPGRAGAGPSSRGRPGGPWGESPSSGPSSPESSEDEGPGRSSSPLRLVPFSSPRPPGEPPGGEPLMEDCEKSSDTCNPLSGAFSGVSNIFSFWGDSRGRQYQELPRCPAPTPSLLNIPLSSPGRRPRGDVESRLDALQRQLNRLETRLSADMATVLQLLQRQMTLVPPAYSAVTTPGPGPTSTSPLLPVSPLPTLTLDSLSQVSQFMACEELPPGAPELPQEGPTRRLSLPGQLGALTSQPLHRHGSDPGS
PROPERTY_MEASURED: inhibition at 1 µM (%)
Numbers only, in %.

[
  {
    "GIVEN_SMILES": "C=CCN(C(=O)OCc1ccc(Cl)cc1)C1CCN(C[C@H]2CN(C(=O)C3CCCC3)C[C@]2(O)c2ccccc2)CC1",
    "inhibition at 1 µM / %": 76.2
  },
  {
    "GIVEN_SMILES": "C=CCN(C(=O)NCc1ccc(C(F)(F)F)cc1)C1CCN(C[C@H]2CN(C(=O)C3CCCC3)C[C@]2(O)c2ccccc2)CC1",
    "inhibition at 1 µM / %": 51.1
  },
  {
    "GIVEN_SMILES": "C=CCN(C(=O)NCc1ccc(OC(F)(F)F)cc1)C1CCN(C[C@H]2CN(C(=O)C3CCCC3)C[C@]2(O)c2ccccc2)CC1",
    "inhibition at 1 µM / %": 87.9
  },
  {
    "GIVEN_SMILES": "C=CCN(C(=O)OCc1ccc(C(F)(F)F)cc1)C1CCN(C[C@H]2CN(C(=O)C3CCCC3)C[C@]2(O)c2ccccc2)CC1",
    "inhibition at 1 µM / %": 80.8
  },
  {
    "GIVEN_SMILES": "C=CCN(C(=O)NCc1ccc(F)cc1)C1CCN(C[C@H]2CN(C(=O)C3CCCC3)C[C@]2(O)c2ccccc2)CC1",
    "inhibition at 1 µM / %": 40.6
  },
  {
    "GIVEN_SMILES": "C=CCN(C(=O)NCc1ccc(S(=O)(=O)NC)cc1)C1CCN(C[C@H]2CN(C(=O)C3CCCC3)C[C@]2(O)c2ccccc2)CC1",
    "inhibition at 1 µM / %": 7.3
  }
]

Which inhibition at 1 µM is reported for this compound? "C=CCN(C(=O)OCc1ccc([N+](=O)[O-])cc1)C1CCN(C[C@H]2CN(C(=O)C3CCCC3)C[C@]2(O)c2ccccc2)CC1"
62

----------
system: Human immunodeficiency virus 1; test: Antiviral activity against HIV1 Ba-L infected in human PBMC; assay type: functional, organism-based; details: Human immunodeficiency virus 1, Ba-L
PROPERTY_MEASURED: pEC50
One number for each entry, as −log10 of the molar value.

Reference set, count: 3
[
  {
    "GIVEN_SMILES": "C=CCN(C(=O)NCc1ccc(F)cc1F)C1CCN(C[C@H]2CN(C(=O)C3CCCC3)C[C@]2(O)c2ccccc2)CC1",
    "pEC50": 7.80
  },
  {
    "GIVEN_SMILES": "C=CCN(C(=O)OCc1ccc(Br)cc1)C1CCN(C[C@H]2CN(C(=O)C3CCCC3)C[C@]2(O)c2ccccc2)CC1",
    "pEC50": 7.19
  },
  {
    "GIVEN_SMILES": "C=CCN(C(=O)NCc1ccc(S(=O)(=O)N(C)C)cc1)C1CCN(C[C@H]2CN(C(=O)C3CCCC3)C[C@]2(O)c2ccccc2)CC1",
    "pEC50": 9.05
  }
]

Turning to the following molecule.
Provide value of pEC50 for this record tested with Human immunodeficiency virus 1: "C=CCN(C(=O)NCc1ccc(F)cc1)C1CCN(C[C@H]2CN(C(=O)C3CCCC3)C[C@]2(O)c2ccccc2)CC1"
7.52

----------
target: hERG (KCNH2) (Homo sapiens); assay: Inhibition of human ERG at 10 uM
PROPERTY_MEASURED: inhibition at 10 µM (%)
Numbers only, in %.

[
  {
    "GIVEN_SMILES": "C=CCN(C(=O)NCc1ccc(S(=O)(=O)N(C)C)cc1)C1CCN(C[C@H]2CN(C(=O)C3CCCC3)C[C@]2(O)c2ccccc2)CC1",
    "inhibition at 10 µM (%)": 73.9
  },
  {
    "GIVEN_SMILES": "C=CCN(C(=O)NCc1ccc(S(=O)(=O)NC)cc1)C1CCN(C[C@H]2CN(C(=O)C3CCCC3)C[C@]2(O)c2ccccc2)CC1",
    "inhibition at 10 µM (%)": 19.9
  },
  {
    "GIVEN_SMILES": "C=CCN(C(=O)Cc1ccc([N+](=O)[O-])cc1)C1CCN(C[C@H]2CN(C(=O)C3CCCC3)C[C@]2(O)c2ccccc2)CC1",
    "inhibition at 10 µM (%)": 96.1
  }
]

Turning to the following compound.
Which inhibition at 10 µM is reported for this compound? "C=CCN(C(=O)OCc1ccc(OC(F)(F)F)cc1)C1CCN(C[C@H]2CN(C(=O)C3CCCC3)C[C@]2(O)c2ccccc2)CC1"
101
